# System: Hepatitis C virus
# assay notes: Antiviral activity against HCV genotype 2a infected in human Huh7.5-FGR-JC1-Rluc2A replicon cells assessed as inhibition of viral RNA replication at 50 uM measured after 48 hrs by luciferase reporter gene assay relative to control
# Format: functional, Hepacivirus hominis
# run conditions: Huh-7, 48 h
reported metric: inhibition at 50 µM (%)
Answer with a number only, understood to be in %.

Solved entries (count: 6):
C[C@]12C[C@@H](Cc3ccccc3)N(Cc3ccccc3)[C@H]1CCCC(=O)N2 (racemic) : 95
O=C1CCCC[C@@H]2[C@H]1[C@@H](c1ccccc1)CN2Cc1ccccc1 (racemic) : 4
CCOC(=O)[C@@H]1C[C@@H]2[C@@H](OC(C)=O)CCCC[C@@H]2N1S(=O)(=O)c1ccc(C)cc1 (racemic) : 73
CCNC(=O)[C@@H]1C[C@@H]2C(=O)CCCC[C@@H]2N1S(=O)(=O)c1ccc(C)cc1 (racemic) : 39
O=C1CCCC[C@H]2[C@H]1[C@@H](c1ccccc1)CN2Cc1ccccc1 (racemic) : 96
CCOC(=O)[C@@H]1C[C@@H]2NC(=O)CCCC[C@@H]2N1S(=O)(=O)c1ccc(C)cc1 (racemic) : 71

Turning to the following compound.
// query Consider the compound CCOC(=O)[C@@H]1C[C@@H]2[C@@H](O)CCCC[C@@H]2N1S(=O)(=O)c1ccc(C)cc1 (racemic) and give its measured inhibition at 50 µM.
// result 77

###

# Test system: Hepatitis C virus
# assay notes: Antiviral activity against HCV genotype 2a infected in human Huh7.5-FGR-JC1-Rluc2A replicon cells assessed as inhibition of viral RNA replication at 50 uM measured after 48 hrs by luciferase reporter gene assay relative to control
# Format: functional, Hepacivirus hominis
# run conditions: Huh-7, 48 h
Note: every record was labeled by where its inhibition at 50 µM sits among bin 0: < 40%; bin 1: ≥ 40% and < 70%; bin 2: ≥ 70%

Worked examples, 5 compounds total:
CCOC(=O)[C@@H]1C[C@@H]2/C(=N/OCc3ccccc3)CCCC[C@@H]2N1S(=O)(=O)c1ccc(C)cc1 (racemic) : bin 0
CCOC(=O)[C@@H]1C[C@@H]2/C(=N/O)CCCC[C@@H]2N1S(=O)(=O)c1ccc(C)cc1 (racemic) : bin 1
Cc1ccc(S(=O)(=O)N2[C@H](C(=O)NCCc3ccccc3)C[C@@H]3C(=O)CCCC[C@@H]32)cc1 (racemic) : bin 1
Cc1ccc(S(=O)(=O)N2[C@H](C(N)=O)C[C@@H]3C(=O)CCCC[C@@H]32)cc1 (racemic) : bin 0
CCOC(=O)[C@@H]1C[C@@H]2C(=O)CCCC[C@H]2N1S(=O)(=O)c1ccc(C)cc1 (racemic) : bin 2

// query Pick a category. Item: Cc1ccc(S(=O)(=O)N2[C@H](C(=O)N3CCOCC3)C[C@@H]3C(=O)CCCC[C@@H]32)cc1 (racemic)
// result bin 0

// query Band assignment needed for COc1cccc([C@@H]2CN(Cc3ccccc3)[C@@H]3CCCCC(=O)N[C@H]32)c1 (racemic) please.
// result bin 1

// query Which class does `CCOC(=O)[C@H](C)N1CC[C@H]2C(=O)CCCC[C@@H]21` fall in?
// result bin 2

// query GET /class?item= `CCOC(=O)[C@@H](C)N1CC[C@H]2C(=O)CCCC[C@@H]21`
// result bin 0

// query Please indicate the class for OC1CCCC[C@H]2[C@H]1[C@@H](c1cccc(F)c1)CN2Cc1ccccc1 (mixture of isomers) based on its inhibition at 50 µM.
// result bin 2

// query Record O=C1CCCC[C@@H]2[C@H](C[C@H](Cc3ccccc3)N2Cc2ccccc2)N1 (racemic) — which class?
// result bin 2

// query // return the class label for Cl.Cl.Fc1cccc([C@@H]2CN(Cc3ccccc3)[C@@H]3CCCCCN[C@H]32)c1 (racemic)
// result bin 1

// query Note: place this compound into its band. Item: CCOC(=O)[C@@H]1C[C@@H]2/C(=N/NC(N)=S)CCCC[C@@H]2N1S(=O)(=O)c1ccc(C)cc1 (racemic)
// result bin 1

// query Which class does Cc1ccc(S(=O)(=O)N2[C@H]3CCCCC(=O)[C@@]3(C)C[C@H]2C(=O)O)cc1 (racemic) fall in?
// result bin 0

// query Into which bin does this compound go? CCOC(=O)[C@@H]1C[C@@H]2C(=O)CCCC[C@@H]2N1S(=O)(=O)c1ccnn1C (racemic)
// result bin 0

// query Exercise: read the entry CCOC(=O)[C@@H]1C[C@@H]2C(=O)CCCC[C@@H]2N1C(=O)c1ccccc1 (racemic) and state which class it falls under.
// result bin 2

###

# assay notes: Cytotoxicity against human Huh7.5 cells measured after 48 hrs by MTS assay
# Type: toxicity, cell-based, Huh-7
# run conditions: Huh7.5 cells
reported metric: CC50 at 48 h

Example cases with answers are listed next.
CCOC(=O)[C@@H]1C[C@@H]2/C(=N/NC(N)=S)CCCC[C@@H]2N1S(=O)(=O)c1ccc(C)cc1 (racemic) : > 200 µM
CCOC(=O)[C@@H]1C[C@@H]2C(=O)CCCC[C@@H]2N1C(=O)c1ccccc1 (racemic) : > 200 µM

# input for lookup
// query Which CC50 at 48 h value belongs to CC(C)(C)OC(=O)N1CC[C@H]2[C@H](C(=O)C1)[C@@H](c1ccccc1)CN2Cc1ccccc1 (racemic) ?
// result > 50 µM

###

Item-by-item account of Ratio CC50/EC50
# assay notes: Selectivity index, ratio of CC50 for human Huh7.5 cells to EC50 for HCV genotype 2a infected in human Huh7.5-FGR-JC1-Rluc2A replicon cells
# Parameters: species or system Huh-7
Could you keep your reply to the number by itself?

O=C1CCCC[C@H]2[C@H]1[C@@H](c1ccccc1)CN2Cc1ccccc1 (racemic) : 29.2
CCOC(=O)[C@@H]1C[C@@H]2/C(=N/Nc3ccccc3)CCCC[C@@H]2N1S(=O)(=O)c1ccc(C)cc1 (racemic) : 44.2
CCOC(=O)[C@@H]1C[C@@H]2/C(=N/NC(N)=S)CCCC[C@@H]2N1S(=O)(=O)c1ccc(C)cc1 (racemic) : 17.3
O=C1CCCC[C@@H]2[C@H]1[C@@H](c1ccccc1)CN2S(=O)(=O)c1ccccc1 (racemic) : 17.6

Please look at the following compound next.
// query Looking for the measured Ratio CC50/EC50 of CCOC(=O)[C@@H]1C[C@@H]2/C(=N/O)CCCC[C@@H]2N1S(=O)(=O)c1ccc(C)cc1 (racemic) , can you help?
// result 13.1

###

# System: Hepatitis C virus
# assay notes: Antiviral activity against HCV genotype 2a infected in human Huh7.5-FGR-JC1-Rluc2A replicon cells assessed as inhibition of viral RNA replication at 50 uM measured after 48 hrs by luciferase reporter gene assay relative to control
# Type: functional, Hepacivirus hominis
# run conditions: Huh-7, 48 h
Use 60% as the dividing line for inhibition at 50 µM, with the line itself on the true side and lower values as false.

Examples from the recorded data:
CC(C)(C)OC(=O)N1CC[C@@H]2NC[C@H](c3ccccc3)[C@H]2C(=O)C1.Cl (racemic) : false
CCOC(=O)[C@@H]1C[C@@H]2/C(=N/Nc3ccccc3)CCCC[C@@H]2N1S(=O)(=O)c1ccc(C)cc1 (racemic) : true
O=C1CCCC[C@@H]2[C@@H](N1)[C@H](c1cccc(F)c1)CN2Cc1ccccc1 (racemic) : true
CCOC(=O)[C@@H]1C[C@@H]2[C@@H](CCC[C@@H]2O)N1S(=O)(=O)c1ccc(C)cc1 (racemic) : false
O=C(O)[C@@H]1C[C@H]2[C@@H](O)CCC[C@H]2N1 (racemic) : false
Cc1ccc(S(=O)(=O)N2[C@H](C(=O)O)C[C@@H]3/C(=N/Nc4ccccc4)CCCC[C@@H]32)cc1 (racemic) : true
CC(C)(C)OC(=O)N1CC[C@H]2[C@H](C(=O)C1)[C@@H](c1ccccc1)CN2Cc1ccccc1 (racemic) : true
O=C1CCCC[C@@H]2[C@@H]1[C@H](c1cccc(F)c1)CN2Cc1ccccc1 (racemic) : true
CCOC(=O)[C@@H]1C[C@]2(C)C(=O)CCCC[C@@H]2N1S(=O)(=O)c1ccc(C)cc1 (racemic) : true
CCOC(=O)[C@H]1C[C@H]2C(=O)CCCC[C@H]2N1S(=O)(=O)c1ccc(C)cc1 (racemic) : true

// query Quick check: does Cc1ccc(S(=O)(=O)N2[C@H](C(=O)O)C[C@@H]3C(=O)CCCC[C@@H]32)cc1 (racemic) have inhibition at 50 µM greater than or equal to 60%?
// result false

// query Decide: inhibition at 50 µM of CCOC(=O)[C@@H]1C[C@@H]2C(=O)CCCC[C@@H]2N1S(=O)(=O)c1ccc(C(C)(C)C)cc1 (racemic) >= 60%?
// result true

// query Textbook exercise: given the entry O=C1CCCC[C@@H]2[C@H]1[C@@H](c1ccccc1)CN2S(=O)(=O)c1ccccc1 (racemic) , state whether its inhibition at 50 µM is greater than or equal to 60%.
// result true
